Ref: PubChem BioAssay (NCI)

Measured GI50, listed per entry for reference.
Tested on: COLO 205 colon
Experiment: NCI tumour cell line growth inhibition, 48 h

Consider N#CC(C#N)=C/C=C(\Sc1ccc(F)cc1Cl)c1ccc(Cl)cc1 . Its measured GI50 is 0.515 µM

Consider CN(C)c1ccc(/C=N/S(=O)(=O)c2ccc(-n3c(-c4ccccc4)nc4c(Br)cc(Br)cc4c3=O)cc2)cc1 . Its measured GI50 is 44.9 µM

Consider NC(CSSCC(N)C(=O)O)C(=O)O (centres undefined) . Its measured GI50 is > 100 µM

Consider CN(CCCCCl)P(=O)(OCc1ccc([N+](=O)[O-])o1)OCC1OC(n2cnc([N+](=O)[O-])c2N)C(O)C1O (centres undefined) . Its measured GI50 is > 100 µM
